These entries and their values trace back to PubChem BioAssay (NCATS).

- assayed target: Mitogen-activated protein kinase 10 (Mus musculus)
- method: JNK3 AlphaScreen Assay (AID 530);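 further: kinase came from lysate of stimulated human HepG2 cells; signal reports phosphorylation of biotinylated GST-cJun 1-79 at Ser73 with 10 µM ATP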
- protocol conditions: JNK3 lysate, c-Jun phosphorylation; series mostly up to 57.1 µM
Results filed as inconclusive are left out. Calls of active or inactive are those of the source. The call rests on the fitted dose curve; in most records, active means well fitted curve in either direction with a large enough effect (not every such curve was filed as active); inconclusive means small, poorly fitted or top-dose-only effect, or another doubt; inactive means flat fitted curve, though single readings scatter.
measured endpoint: outcome

>>> observed("O=C(N[C@@H](Cc1ccccc1)C(=O)CCl)OCc1ccccc1")
"inactive"
>>> observed("N#CC(C#N)=C(N)/C(C#N)=C/c1ccc(O)cc1")
"inactive"
>>> observed("O=C(c1ccc2c(c1)OCCO2)N1CCCCC1")
"inactive"

---

- method: High Content Imaging Cell-Based qHTS for Inhibitors of the mTORC1 Signaling Pathway in MEF Cells (AID 2667)
- protocol conditions: series mostly up to 38.3 µM
Inconclusive results are not listed. Active and inactive are the calls of the source. The call rests on the fitted dose curve; in most records, active means well fitted inhibition curve with a large enough effect; inconclusive means small, poorly fitted or top-dose-only effect, or effect the other way; inactive means no such curve, though single readings can be large or run the other way.
Pick one: 1 (yes) for active, 0 (no) for inactive

Previously resolved entries follow.
>>> assigned_class("NC(N)=[N+]1CCc2ccccc2C1")
"0 (no)"
>>> assigned_class("Nc1ccc(CCNc2ncnc3c2ncn3C2OC(CO)C(O)C2O)cc1 (stereo not drawn)")
"0 (no)"
>>> assigned_class("Cn1c(=O)c2[nH]c(-c3ccc(S(=O)(=O)O)cc3)nc2n(C)c1=O")
"0 (no)"
>>> assigned_class("CCCCCCCCCC[Si](C)(C)CCC(=O)NC(Cc1ccc(C)cc1)c1ccccc1 (stereo not drawn)")
"0 (no)"
>>> assigned_class("c1ccc2nc(C3=NCCN3)ccc2c1")
"0 (no)"
>>> assigned_class("CCCc1c(OCCCOc2ccc(OCC(=O)O)cc2)ccc(C(C)=O)c1O")
"0 (no)"
>>> assigned_class("Cc1cccc(C2CN(C)CCc3c2cc(O)c(O)c3Cl)c1 (stereo not drawn)")
"0 (no)"
>>> assigned_class("CC(C)NCC(O)COc1ccc(CC(N)=O)cc1 (stereo not drawn)")
"0 (no)"
>>> assigned_class("O=C(O)C1CCCNC1 (stereo not drawn)")
"0 (no)"
>>> assigned_class("CSC(=N)N")
"0 (no)"

Q. Identify the outcome logged in this assay for the compound shown: O=c1ccc2c(OCCCCc3ccccc3)c3ccoc3cc2o1
A. 0 (no)

Q. For this compound, state the assay outcome: NC(N)=N[C@@H](CCC(=O)O)C(=O)O
A. 0 (no)

Q. Which outcome did this test record for the compound O=C(N[C@@H](Cc1ccccc1)C(=O)CCl)OCc1ccccc1 ?
A. 1 (yes)
